The entries that follow carry pKi values tested on 5-hydroxytryptamine receptor 1A (Homo sapiens, UniProt P08908), drawn from several published reports.
Sequence (P08908 whole entry): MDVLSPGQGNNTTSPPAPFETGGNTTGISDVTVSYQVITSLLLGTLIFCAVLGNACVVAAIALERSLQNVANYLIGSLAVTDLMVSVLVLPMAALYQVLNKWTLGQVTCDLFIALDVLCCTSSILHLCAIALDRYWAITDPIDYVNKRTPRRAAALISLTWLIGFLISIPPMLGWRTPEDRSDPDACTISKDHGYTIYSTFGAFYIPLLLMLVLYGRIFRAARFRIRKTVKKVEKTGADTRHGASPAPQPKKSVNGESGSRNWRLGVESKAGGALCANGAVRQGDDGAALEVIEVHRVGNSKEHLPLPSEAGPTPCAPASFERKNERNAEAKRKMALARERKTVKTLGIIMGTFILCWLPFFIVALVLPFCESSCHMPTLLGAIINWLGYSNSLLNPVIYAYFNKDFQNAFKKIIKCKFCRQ
Units for pKi: none; it is -log10 of a concentration expressed in mol/L.

MOLECULE: Cn1c(=O)c2c(nc3n2CCCN3CCCN2CCN(c3cccc(Cl)c3)CC2)n(C)c1=O
READOUT_VALUE: 7.59

MOLECULE: O=C(CCCCCN1CCN(c2ccccc2-c2ccccc2)CC1)NCc1ccc(OCCCN2CCOCC2)cc1
READOUT_VALUE: 6.83

MOLECULE: Cc1cccc(N2CCN(CCCCNC(=O)c3ccccn3)CC2)n1
READOUT_VALUE: 8.52

MOLECULE: CCc1nc2c(N3CCNCC3)ccnc2n1Cc1cccc(F)c1
READOUT_VALUE: 5.55

Shifting focus to the molecule that follows.
*Q* For the record O=C(NCC(O)CCN1CCN(c2cccc(Cl)c2Cl)CC1)c1cc2ccccc2[nH]1 (stereo not given) , what value of pKi is listed for 5-hydroxytryptamine receptor 1A (Homo sapiens, UniProt P08908)?
*A* 7.23
